test.method.notes: photoluminescence quantum yield (fraction); solvent given as SMILES
measurement.parameters: in ClCCl
We label by threshold. Values of photoluminescence quantum yield strictly beneath 0.2 are y. Values of 0.2 and up are n.

In [3]: df
Out[3]:
                               input_smiles  class_label
0  C=CCOc1nnc(OCCC(F)(F)C(F)(F)C(F)(F)C(F)(F)C(F)(F)C(F)(F)C(F)(F)C(F)(F)F)nn1            y
1  COc1ccc(C(=O)NC(C)(C)C)c2c1ccc1c3ccccc3c3ccccc3c12            y
2  C(=C\c1ccncn1)/c1ccc(N(c2ccccc2)c2ccc(/C=C/c3ccncn3)cc2)cc1            n
3    CCOC(=O)/N=c1/oc2cc(N(CC)CC)ccc2cc1C#N            n
4  CC1=C(C#Cc2ccccc2)C(C)=[N+]2C1=C(c1ccccc1)c1c(C)c(C#Cc3ccccc3)c(C)n1[B-]2(F)F            n

====

Recorded photoluminescence quantum yield for the following compounds
test.method.notes: photoluminescence quantum yield (fraction); solvent given as SMILES
measurement.parameters: in CC(C)=O
recorded.metric: photoluminescence quantum yield

>>> print(df.to_string())
                                    compound  value_reported
 0  Cc1ccccc1C(=O)NN1C2=C(CC3=C1CC(C)(C)CC3=O)C(=O)CC(C)(C)C2            0.53
 1  COc1ccc(/C=C/C2=CC(/C=C/c3ccc(OC)cc3)=[O+][B-](OC(C)=O)(OC(C)=O)O2)cc1            0.88
 2  COc1cccc(OC)c1C1=C2C(C)=CC(C)=[N+]2[B-](F)(F)n2c(C)cc(C)c21            0.72
 3  C(=C\c1ccc(-c2ccc(/C=C/c3ccc(-n4c5ccccc5c5ccccc54)cc3)s2)s1)/c1ccc(-n2c3ccccc3c3ccccc32)cc1            0.09
 4  CCC1=C(C)C2=C(C)c3c(I)c(I)c(I)n3[B-](F)(F)[N+]2=C1C           0.046
 5            CN(C)c1cc(C#N)c(N(C)C)c(C#N)c1            0.51
 6  COc1cc(N(c2ccc(C=C(C#N)C#N)c(OC)c2)c2ccc(C=C(C#N)C#N)c(OC)c2)ccc1C=C(C#N)C#N           0.074
 7  CCN(CC)c1ccc2cc(/C(Cl)=C/C=C/C(=C(C#N)C#N)c3ccc(N(c4ccccc4)c4ccccc4)cc3)c(=O)oc2c1           0.015
 8  O=C1/C(=C\c2ccc3oc4ccccc4c3c2)S(=O)(=O)c2ccccc21           0.055
 9  CC1=CC(C)=[N+]2C1=C(c1ccc(N3CCCCC3)cc1)c1c(C)cc(C)n1[B-]2(F)F           0.002
10  CN(C)c1ccc2cc(C3=[O+][B-](F)(F)OC(c4ccc(C#N)cc4)=C3)ccc2c1            0.18
11  O=C1c2ccccc2-c2ccc(N3CCN(c4ccccc4)CC3)c3cccc1c23           0.011
12  COc1ccc(C2=CC(c3ccc4cc(N(C)C)ccc4c3)=[O+][B-](F)(F)O2)cc1            0.12
13      COc1ccc(/C=C2\OC(=O)c3cc(N)ccc32)cc1            0.21
14                    O=c1c2ccccc2sc2ccccc12           0.024
15  CC(C)(C)NC1=C2C=CC=[N+]2[B-](F)(F)n2cccc21           0.002
16        COc1ccc(-c2nc(N)nc(C#N)c2C#N)cc1OC          0.0272
17  CN(C)c1ccc(C2=Nc3sc4cc(F)ccc4[n+]3[B-](F)(F)O2)cc1            0.23
18  CCCCCCC(CCCCCC)n1c(=O)c2c3ccc4cccc5c6cccc7ccc(c2c1=O)c(c76)c3c45            0.27
19  COc1ccc(C#Cc2nc3ccccc3nc2-c2cn(C)c3ccccc23)cc1            0.16
20  COc1ccc(N(c2ccc(OC)cc2)c2ccc3ccc4c(B(c5c(C)cc(C)cc5C)c5c(C)cc(C)cc5C)ccc5ccc2c3c54)cc1           0.026
21  Cn1c(/C=C/c2ccc(/C=C/c3nc4ccccc4[nH]3)cc2)[n+](C)c2ccccc21           0.103
22  CCN(CC)c1ccc2cc(/C=C/C(=O)/C=C(O)/C=C/c3cc4ccc(N(CC)CC)cc4oc3=O)c(=O)oc2c1             0.2
23  c1ccc(-c2cc(-c3ccc(-c4nc(-c5ccccn5)c(-c5ccccn5)[nH]4)cc3)cc(-c3ccccn3)n2)nc1           0.201
24  CN(C)CCN(Cc1c2ccccc2c(CN(CCN(C)C)c2ccc([N+](=O)[O-])cc2[N+](=O)[O-])c2ccccc12)c1ccc([N+](=O)[O-])cc1[N+](=O)[O-]          0.0012
25     Cn1ccc(-c2nc3ccccc3nc2/C=C/N2CCCC2)c1           0.414
26  COc1ccc(/C=C/C2=[O+][B-](F)(F)OC(/C=C/c3ccc(OC)cc3)=C2c2ccccc2)cc1            0.41
27  CCCCCCCCCCCCC1(CCCCCCCCCCCC)c2cc(-c3ccc(C=C4C(=O)c5ccccc5C4=O)cc3)ccc2-c2ccc(-c3ccc(C=C4C(=O)c5ccccc5C4=O)cc3)cc21           0.121
28  CCCCC1=Cc2c3ccc4cccc5ccc(c6cc(-c7ccccc7)n(c26)P1(=O)c1ccccc1)c3c45 (stereo unspecified)            0.56
29  COc1cc(OC)cc(C2=[O+][B-](F)(F)OC(c3ccc4ccccc4c3)=C2)c1            0.01
30  O=C1CCCC2=C1CC1=C(CCCC1=O)N2NC(=O)c1ccccc1            0.42
31  COc1cc(OC)cc(C2=[O+][B-](F)(F)OC(c3ccc4cc(OC)ccc4c3)=C2)c1            0.37
32  c1ccc(-c2nn(-c3ccccc3)c3nc4ccccc4cc23)cc1            0.85
33  COC(=O)c1ccc2c3ccc(C(=O)OC)c4c(C(=O)OC)ccc(c5ccc(C(=O)OC)c1c25)c43            0.99
34  COc1ccc(-n2c3ccccc3c3cc(C=C(C#N)C#N)ccc32)cc1           0.018
35  COc1cc(OC)c(C2=C3C(C)=CC(C)=[N+]3[B-](F)(F)n3c(C)cc(C)c32)c(OC)c1             0.8
